assay_details: Displacement of [35S]nodulisporic amide from Glutamate gated chloride channel alpha subunit/GABA gated chloride channel subunit Rdl in Drosophila melanogaster head membrane
Below, each entry is listed alongside its reported IC50.
reported_endpoint: IC50 (nM)

- C=C(C)[C@H]1C(=O)c2c3c(cc4c5c(n1c24)[C@@]1(C)[C@@H](CC[C@H]2[C@](C)(/C=C/C=C(\C)C(=O)OC)[C@@H](O)CC[C@@]21C)C5)C1=CC(C)(C)OC(C)(C)[C@H]1[C@@H]3O: 0.43
- CC(C)=CCc1c2c(cc3c4c([nH]c13)[C@@]1(C)[C@@H](CC[C@H]3[C@](C)(/C=C/C=C(\C)C(=O)O)[C@@H](O)CC[C@@]31C)C4)C1=CC(C)(C)OC(C)(C)[C@H]1[C@@H]2O [NODULISPORIC ACID C]: 5.2
- CC(C)=CCc1c2c(cc3c4c([nH]c13)[C@@]1(C)[C@@H](CC[C@@H]3[C@]1(C)CC[C@]1(O)O[C@H]([C@H](O)[C@H](C)C(=O)O)C[C@@]31C)C4)C1=CC(C)(C)OC(C)(C)[C@H]1[C@@H]2O [NODULISPORIC ACID C2]: 71.5
- C=C(C)[C@H]1C(=O)c2c3c(cc4c5c(n1c24)[C@@]1(C)[C@@H](CC[C@@H]2[C@]1(C)CC[C@]1(O)O[C@H]([C@H](O)[C@H](C)C(=O)O)C[C@@]21C)C5)C1=CC(C)(C)OC(C)(C)[C@H]1[C@@H]3O [NODULISPORIC ACID A12]: 70
- C=C(C)[C@H]1C(=O)c2c3c(cc4c5c(n1c24)[C@@]1(C)C(CC[C@H]2[C@](C)(/C=C/C=C(\C)C(=O)O)[C@@H](O)CC[C@@]21C)C5)C1=CC(C)(C)OC(C)(C)C1[C@@H]3O (stereo partly drawn) [NOD ACID A]: 0.27
- C=C(C)[C@H]1C(=O)c2c3c(cc4c5c(n1c24)[C@@]1(C)[C@@H](CC[C@H]2[C@](C)(CC/C=C(\C)C(=O)O)[C@@H](O)CC[C@@]21C)C5)C1=CC(C)(C)OC(C)(C)[C@H]1[C@@H]3O [NODULISPORIC ACID A4]: 2.4

* * *

Entries and their pIC50 values follow.
assay_details: Displacement of [35S]nodulisporic amide from Glutamate gated chloride channel alpha subunit/GABA gated chloride channel subunit Rdl in Drosophila melanogaster head membrane
pIC50: −log10 of the molar value.
reported_endpoint: pIC50

• C[C@H](C(=O)O)[C@@H](O)[C@@H]1C[C@@]2(C)[C@@H]3CC[C@H]4Cc5c([nH]c6cc7c(cc56)C5=CC(C)(C)OC(C)(C)[C@H]5C7)[C@]4(C)[C@@]3(C)CC[C@]2(O)O1 [NODULISPORIC ACID D2] = 7.66
• C=C(C)[C@H]1Cc2c3c(cc4c5c(n1c24)[C@@]1(C)[C@@H](CC[C@H]2[C@](C)(/C=C/C=C(\C)C(=O)O)[C@@H](O)CC[C@@]21C)C5)C1=CC(C)(C)OC(C)(C)[C@H]1[C@@H]3O = 7.76
• CC(C)=CCc1cc2[nH]c3c(c2cc1CC=C(C)C)C[C@@H]1CC[C@H]2[C@](C)(CC/C=C(\C)C(=O)O)[C@@H](O)CC[C@]2(C)[C@@]31C = 5.67
• CC(C)=CCc1c2c(cc3c4c([nH]c13)[C@@]1(C)[C@@H](CC[C@@H]3[C@]1(C)CC[C@]1(O)O[C@H](/C=C(\C)C(=O)O)C[C@@]31C)C4)C1=CC(C)(C)OC(C)(C)[C@H]1[C@@H]2O = 7.28
• C=C(C)[C@H]1C(=O)c2c3c(cc4c5c(n1c24)[C@@]1(C)[C@@H](CC[C@H]2[C@](C)(CC/C=C(\C)C(=O)O)[C@@H](O)CC[C@@]21C)C5)C1=CC(C)(C)OC(C)(C)C1=C3 = 7.64

* * *

compounds and their reported IC50
assay_details: Displacement of [35S]nodulisporic amide from Glutamate gated chloride channel alpha subunit/GABA gated chloride channel subunit Rdl in Drosophila melanogaster head membrane
reported_endpoint: IC50 (nM)

• C=C(C)[C@H]1C(=O)c2c3c(cc4c5c(n1c24)[C@@]1(C)[C@@H](CC[C@@H]2[C@]1(C)CC[C@]1(O)O[C@H](/C=C(\C)C(=O)O)C[C@@]21C)C5)C1=CC(C)(C)OC(C)(C)[C@H]1[C@@H]3O = 10.5
• C=C(C)[C@H]1Cc2c3c(cc4c5c(n1c24)[C@@]1(C)[C@@H](CC[C@H]2[C@](C)(/C=C/C=C(\C)C(=O)OC)[C@@H](O)CC[C@@]21C)C5)C1=CC(C)(C)OC(C)(C)[C@H]1[C@@H]3O = 2.6
• C=C(C)[C@H]1Cc2c3c(cc4c5c(n1c24)[C@@]1(C)[C@@H](CC[C@@H]2[C@]1(C)CC[C@]1(O)O[C@H](/C=C(\C)C(=O)O)C[C@@]21C)C5)C1=CC(C)(C)OC(C)(C)[C@H]1[C@@H]3O = 121
• C=C(C)[C@H]1Cc2c3c(cc4c5c(n1c24)[C@@]1(C)[C@@H](CC[C@@H]2[C@]1(C)CC[C@]1(O)O[C@H]([C@H](O)[C@H](C)C(=O)O)C[C@@]21C)C5)C1=CC(C)(C)OC(C)(C)[C@H]1[C@@H]3O = 101

* * *

assay_details: Displacement of [35S]nodulisporic amide from Glutamate gated chloride channel alpha subunit/GABA gated chloride channel subunit Rdl in Drosophila melanogaster head membrane
reported_endpoint: IC50

- C/C(=C\CC[C@]1(C)[C@@H](O)CC[C@@]2(C)[C@H]1CC[C@H]1Cc3c([nH]c4ccccc34)[C@@]12C)C(=O)O: > 10 µM
- CC(C)=CCc1c2c(cc3c4c([nH]c13)[C@@]1(C)[C@@H](CC[C@H]3[C@](C)(CC/C=C(\C)C(=O)O)[C@@H](O)CC[C@@]31C)C4)C1=CC(C)(C)OC(C)(C)C1=C2: > 0.1 µM
- C/C(=C\C=C\[C@]1(C)[C@@H](O)CC[C@@]2(C)[C@H]1CC[C@H]1Cc3c([nH]c4cc5c(cc34)C3=CC(C)(C)OC(C)(C)[C@H]3C5)[C@@]12C)C(=O)O: > 1 µM
- COC(=O)[C@@H](C)[C@@H](O)[C@@H]1C[C@@]2(C)[C@@H]3CC[C@H]4Cc5c([nH]c6cc7c(cc56)C5=CC(C)(C)OC(C)(C)[C@H]5C7)[C@]4(C)[C@@]3(C)CC[C@]2(O)O1 [NODULISPORIC ACID D2 METHYL ESTER]: > 10 µM
- COC(=O)/C(C)=C/CC[C@]1(C)[C@@H](O)CC[C@@]2(C)[C@H]1CC[C@H]1Cc3c([nH]c4cc(CC=C(C)C)c(CC=C(C)C)cc34)[C@@]12C: > 0.1 µM
